Give measured enrichment ratio for each item. Keep answers brief.
B1: PhoQ; a variant is named by its letters at X, in order, P23837 (parent)
chain: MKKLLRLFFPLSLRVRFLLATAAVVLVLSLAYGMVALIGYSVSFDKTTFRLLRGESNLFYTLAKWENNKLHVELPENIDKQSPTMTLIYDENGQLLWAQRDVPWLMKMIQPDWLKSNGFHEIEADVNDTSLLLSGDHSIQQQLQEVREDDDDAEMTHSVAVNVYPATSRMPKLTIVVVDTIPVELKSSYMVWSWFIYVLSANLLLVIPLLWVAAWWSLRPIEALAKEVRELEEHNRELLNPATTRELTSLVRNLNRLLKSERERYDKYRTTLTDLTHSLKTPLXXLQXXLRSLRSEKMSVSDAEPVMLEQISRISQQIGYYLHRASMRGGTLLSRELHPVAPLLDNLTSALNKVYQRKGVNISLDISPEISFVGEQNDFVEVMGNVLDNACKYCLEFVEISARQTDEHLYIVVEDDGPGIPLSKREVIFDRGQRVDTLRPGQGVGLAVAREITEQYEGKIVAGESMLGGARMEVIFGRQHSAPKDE

Variants of: B1
measurement_protocol: enrichment ratio after two sorts for PhoP signalling (ratio (wild type AVST 3.29)); higher = more functional
assay_context: with PhoP (E. coli)
Over roughly 140,000 sequences, “enrichment ratio after two sorts for PhoP signalling” has its median near 0; the highest 2% begin near 11. What follows is part of a selection rich in the highest values, with near analogues and random picks from the rest.

YELN    2.61

Each variant below has a recorded value; state its enrichment ratio.
1. AKAI
2. MKMF
3. TMAT
4. PIRV

OUT:
1: 5.1; 2: ≤ 0.25; 3: 11.2; 4: ≤ 0.25

Report enrichment ratio for every entry below.
1. QESA
2. TLSA

OUT:
≤ 0.25
7.98

Batch request: enrichment ratio per item, same order as input.
1. NICI
2. TCHE
3. NRMM
4. GFMC

OUT:
["≤ 0.25", "≤ 0.25", "≤ 0.25", "≤ 0.25"]

Okay, here is my list. What is enrichment ratio for each of these?
1. NICK
2. NESQ
3. QTQP
4. TIAI
5. TIYY
6. ICDP
7. MPHN

OUT:
1. 14.4
2. ≤ 0.25
3. ≤ 0.25
4. 11.7
5. ≤ 0.25
6. ≤ 0.25
7. ≤ 0.25

Parameter requested: enrichment ratio. Apply to each item below.
1. LNRM
2. VMGF
3. AICV
4. DLGS
5. IHQN
6. IRTL
7. VTTM
8. WEFI

OUT:
["≤ 0.25", "≤ 0.25", 15.3, "≤ 0.25", "≤ 0.25", "≤ 0.25", 16.4, "≤ 0.25"]

State recorded enrichment ratio for all listed variants.
1. SFWK
2. AHPL
3. KMAI
4. VCLC
5. MPQI

OUT:
≤ 0.25
≤ 0.25
≤ 0.25
2.94
≤ 0.25

Batch lookup, enrichment ratio per entry.
1. KGAG
2. MCVP

OUT:
1: ≤ 0.25; 2: ≤ 0.25

Hey, can you go through the list below and give me enrichment ratio for every item?
1. KKMR
2. HTRL

OUT:
["≤ 0.25", "≤ 0.25"]
